experiment: tissue levels by HPLC after oral administration to rats; format: in vivo; conditions: liver; rat, 50 mg/kg oral, 8 h; read-out: Tissue level, liver
Measured metric: concentration at 8 h (ng/mL)

Cpd smiles: CN1CCN(c2c(F)cc3c(=O)c(C(=O)O)cn4c3c2SCC4)CC1
Unit text: ng/mL
Test result: 21600

====

assay: tissue levels by HPLC after oral administration to rats; type: in vivo; details: rat, oral, various organs; read-out: ratio of organ concentration with respect to the concentration in plasma

Cpd smiles: CN1CCN(c2c(F)cc3c(=O)c(C(=O)O)cn4c3c2SCC4)CC1
Kp: > 3

====

This document collects MIC values reported for Klebsiella pneumoniae.
Measured metric: MIC

Molecule: CN1CCN(c2c(F)cc3c(=O)c(C(=O)O)cn4c3c2SCC4)CC1
Test result: < 0.39 µg/mL
//
Molecule: CC1CSc2c(N3CCN(C)CC3)c(F)cc3c(=O)c(C(=O)O)cn1c23 (stereo not drawn)
Test result: < 0.39 µg/mL
//
Molecule: O=C(O)c1cn2c3c(c(N4CCN(CC(F)(F)F)CC4)c(F)cc3c1=O)SCC2
Test result: > 50 µg/mL
//
Molecule: O=C(O)c1cn2c3c(c(N4CCNCC4)c(F)cc3c1=O)SCC2
Test result: < 0.39 µg/mL
//
Molecule: CC1CSc2c(N3CCNCC3)c(F)cc3c(=O)c(C(=O)O)cn1c23 (stereo not drawn) [(r)]
Test result: < 0.39 µg/mL
//
Molecule: O=C(O)c1cn2c3c(c(N4CCN(C(=O)C(F)(F)F)CC4)c(F)cc3c1=O)SCC2
Test result: < 0.39 µg/mL
